Assay: Evaluation of ionization potential of film by photoelectron spectrometer
Assay type: physicochemical
Settings: film spin-coated from chloroform on quartz substrate (α-6T: film deposited under vacuum); solid state
READOUT: Ionization Potential

Data request: Returns the measured Ionization Potential for the input compound. Input: "CCCCCCc1ccc(-c2ccc(-c3ccc(-c4ccc(-c5sc(-c6ccc(CCCCCC)s6)cc5-c5ccc(CC)cc5)s4)s3)s2)s1"
Data returned: 5.24 eV

Data request: Also, "CCCCCCc1ccc(-c2ccc(-c3ccc(-c4sc(-c5cc(-c6ccc(CC)cc6)c(-c6ccc(-c7ccc(-c8ccc(CCCCCC)s8)s7)s6)s5)cc4-c4ccc(CC)cc4)s3)s2)s1" please.
Data returned: 5.24 eV

Data request: Also, "CCCCCCc1ccc(-c2ccc(-c3sc(-c4cc(-c5ccc(CC)cc5)c(-c5ccc(-c6ccc(CCCCCC)s6)s5)s4)cc3-c3ccc(CC)cc3)s2)s1" please.
Data returned: 5.34 eV

* * *

Kindly supply the reported Ionization Potential values for the records listed here.
Experiment: Evaluation of ionization potential of film by photoelectron spectrometer
Type: physicochemical
Conditions: film spin-coated from chloroform on quartz substrate (α-6T: film deposited under vacuum); solid state

Data request: Returns the measured Ionization Potential for the input molecule. Input: CCCCCCc1ccc(-c2cc(-c3ccc(CC)cc3)c(-c3ccc(-c4ccc(-c5ccc(-c6sc(-c7cc(-c8ccc(CC)cc8)c(-c8ccc(-c9ccc(-c%10ccc(-c%11sc(-c%12ccc(CCCCCC)s%12)cc%11-c%11ccc(CC)cc%11)s%10)s9)s8)s7)cc6-c6ccc(CC)cc6)s5)s4)s3)s2)s1 [Example 7]
Data returned: 5.46 eV

Data request: Also, CCCCCCc1ccc(-c2ccc(-c3ccc(-c4ccc(-c5ccc(-c6sc(-c7cc(-c8ccc(CC)cc8)c(-c8ccc(-c9ccc(-c%10ccc(-c%11ccc(-c%12ccc(CCCCCC)s%12)s%11)s%10)s9)s8)s7)cc6-c6ccc(CC)cc6)s5)s4)s3)s2)s1 [Example 6] please.
Data returned: 5.18 eV

Data request: Also, CCCCCCc1ccc(-c2ccc(-c3ccc(-c4ccc(-c5sc(-c6cc(-c7ccc(CC)cc7)c(-c7ccc(-c8ccc(-c9ccc(-c%10ccc(CCCCCC)s%10)s9)s8)s7)s6)cc5-c5ccc(CC)cc5)s4)s3)s2)s1 [Example 3] please.
Data returned: 5.26 eV

Data request: Also, c1csc(-c2ccc(-c3ccc(-c4ccc(-c5ccc(-c6cccs6)s5)s4)s3)s2)c1 [α-6T, α-sezithiophene, reference compound] please.
Data returned: 4.7 eV

* * *

Assay: Evaluation of crystallinity of film by X-ray diffractometry
Type: physicochemical
Conditions: In-Plane X-ray diffractometry of film
READOUT: Crystallinity of Film

Data request: Returns the measured Crystallinity of Film for the input compound. Input: "CCCCCCc1ccc(-c2ccc(-c3sc(-c4cc(-c5ccc(CC)cc5)c(-c5ccc(-c6ccc(CCCCCC)s6)s5)s4)cc3-c3ccc(CC)cc3)s2)s1"
Data returned: ◯

Data request: Also, "CCCCCCc1ccc(-c2ccc(-c3ccc(-c4ccc(-c5ccc(-c6sc(-c7cc(-c8ccc(CC)cc8)c(-c8ccc(-c9ccc(-c%10ccc(-c%11ccc(-c%12ccc(CCCCCC)s%12)s%11)s%10)s9)s8)s7)cc6-c6ccc(CC)cc6)s5)s4)s3)s2)s1" please.
Data returned: ◯

Data request: Also, "CCCCCCc1ccc(-c2ccc(-c3ccc(-c4ccc(-c5sc(-c6ccc(CCCCCC)s6)cc5-c5ccc(CC)cc5)s4)s3)s2)s1" please.
Data returned: ◯
